Target: human proteinase 3 (Homo sapiens)
Construct: purchased Elastin Products Company, USA
Sequence (P24158 28-248): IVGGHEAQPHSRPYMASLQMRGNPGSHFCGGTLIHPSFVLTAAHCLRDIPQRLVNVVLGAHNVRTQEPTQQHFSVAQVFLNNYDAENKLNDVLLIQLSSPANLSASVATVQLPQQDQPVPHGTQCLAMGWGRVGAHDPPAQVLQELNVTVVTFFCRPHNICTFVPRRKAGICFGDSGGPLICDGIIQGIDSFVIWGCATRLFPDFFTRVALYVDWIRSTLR
Test: Inhibition of human proteinase 3 (Boc-Ala-Ala-Nva-SBzl)
Format: biochemical
Settings: 10 nM enzyme, 1 mM substrate, 37° C., pH7.4; read-out: Human proteinase 3 (hPr3) IC50
Non-standard residues stand in square brackets, D forms with d. Residues, ends and D or L forms follow the SMILES beside them. Nle = CCCC[C@H](N)C(=O)O
OBSERVATION_TYPE: IC50 (nM)
Give just the number in nM; leave the unit off.

Suppose we examine the molecule CCCC[C@@H]1NC(=O)[C@H](CCCNC(=N)N)NC(=O)[C@@H]2CCCN2C(=O)[C@H]2CCCN2C(=O)[C@H](Cc2ccc(O)cc2)NC(=O)[C@H](CCCCN)NC(=O)[C@H](CCC(N)=O)NC(=O)[C@@H]2CCCN2C(=O)[C@@H]2CCCN2C(=O)[C@H]([C@@H](C)CC)NC(=O)[C@H](CO)NC(=O)[C@H](C)NC(=O)[C@H]([C@@H](C)O)NC1=O [Example 6] (cyclo(R[Nle]TASIPPQKY[dP]P)) ; what IC50 value has been reported?
2370

###

Target: porcine pancreatic elastase (Sus scrofa, UniProt P00772)
Construct: purchased Sigma, USA
Sequence (P00772 27-266): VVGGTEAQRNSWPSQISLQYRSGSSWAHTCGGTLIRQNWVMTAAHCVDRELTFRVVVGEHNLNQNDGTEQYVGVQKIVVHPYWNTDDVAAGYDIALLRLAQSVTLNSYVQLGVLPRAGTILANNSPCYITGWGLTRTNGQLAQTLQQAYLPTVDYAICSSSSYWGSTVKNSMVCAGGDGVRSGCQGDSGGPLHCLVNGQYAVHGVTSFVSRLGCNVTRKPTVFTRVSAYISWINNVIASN
Experiment: Inhibition of porcine pancreatic elastase (MeOSuc-AAA-pNA hydrolysis)
Type: biochemical
Conditions: 15 nM enzyme, 1 mM substrate, 37° C., pH8; read-out: Porcine pancreatic elastase (PPE) IC50
Non-standard residues stand in square brackets, D forms with d. Residues, ends and D or L forms follow the SMILES beside them. Gly(octyl) = CCCCCCCC[C@H](N)C(=O)O; hArg = N=C(N)NCCCC[C@H](N)C(=O)O; Nle = CCCC[C@H](N)C(=O)O
Recorded measurements of pIC50, one per entry
In simple prose, pIC50 is minus the logarithm base ten of a concentration in moles per litre.

Check out these entries, answers already filled in.
INSERT INTO assay_data (compound, observation_type, recorded_value) VALUES
  ('CC[C@H](C)[C@@H]1NC(=O)[C@H](CO)NC(=O)[C@H](C)NC(=O)[C@H]([C@@H](C)O)NC(=O)[C@H](CCC(=O)O)NC(=O)[C@H](CCCNC(=N)N)NC(=O)[C@@H]2CCCN2C(=O)[C@H]2CCCN2C(=O)[C@H](Cc2c[nH]cn2)NC(=O)[C@H](CCCCN)NC(=O)[C@H](Cc2ccc(O)cc2)NC(=O)[C@@H]2CCCN2C(=O)[C@@H]2CCCN2C1=O [Example 14] (cyclo(RETASIPPYKH[dP]P))', 'pIC50', 5.33),
  ('CCCC[C@@H]1NC(=O)[C@H](CCCNC(=N)N)NC(=O)[C@@H]2CCCN2C(=O)[C@H]2CCCN2C(=O)[C@H](Cc2ccc(O)cc2)NC(=O)[C@H](CCCCN)NC(=O)[C@H](CCC(N)=O)NC(=O)[C@@H]2CCCN2C(=O)[C@@H]2CCCN2C(=O)[C@H]([C@@H](C)CC)NC(=O)[C@H](CO)NC(=O)[C@H](C)NC(=O)[C@H]([C@@H](C)O)NC1=O [Example 6] (cyclo(R[Nle]TASIPPQKY[dP]P))', 'pIC50', 5.57),
  ('CCCCCCCC[C@@H]1NC(=O)[C@@H]2CCCN2C(=O)[C@H]2CCCN2C(=O)[C@H](CO)NC(=O)[C@H](CCCCN)NC(=O)[C@H](CCC(N)=O)NC(=O)[C@@H]2CCCN2C(=O)[C@@H]2CCCN2C(=O)[C@H]([C@@H](C)CC)NC(=O)[C@H](CO)NC(=O)[C@H](C)NC(=O)[C@H]([C@@H](C)O)NC(=O)[C@H](CCC(=O)O)NC1=O [Example 3] (cyclo([Gly(octyl)]ETASIPPQKS[dP]P))', 'pIC50', 6.10);

Need pIC50 of CC[C@H](C)[C@@H]1NC(=O)[C@H](CO)NC(=O)[C@H](C)NC(=O)[C@H]([C@@H](C)O)NC(=O)[C@H](CCC(=O)O)NC(=O)[C@H](CCCCNC(=N)N)NC(=O)[C@@H]2CCCN2C(=O)[C@H]2CCCN2C(=O)[C@H]([C@@H](C)O)NC(=O)[C@H](CCCCN)NC(=O)[C@H](CCC(N)=O)NC(=O)[C@@H]2CCCN2C(=O)[C@@H]2CCCN2C1=O [Example 9] (cyclo([hArg]ETASIPPQKT[dP]P)) , thanks.
4.08
